# subject.of.test: Gal6S(b1-3)GlcNAc6S
# protocol: glycan array binding signal (z-score within array); higher = stronger binding
# stated.conditions: glycan notation: IUPAC condensed, linker removed
Only a selection was taken, and the strongest signals are over-represented in it overall.
measure.name: glycan array binding signal (z-score)
Answer field: number only, no words.

binder	measure.name	experimental.value
EULS2 M1 (Oryza sativa) (protein) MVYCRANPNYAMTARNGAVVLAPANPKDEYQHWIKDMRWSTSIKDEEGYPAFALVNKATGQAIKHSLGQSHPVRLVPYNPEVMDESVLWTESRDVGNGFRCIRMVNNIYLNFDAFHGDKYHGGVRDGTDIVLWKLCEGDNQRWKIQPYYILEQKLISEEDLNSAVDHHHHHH	glycan array binding signal (z-score)	10.9
BTL (Bryothamnion triquetrum) (protein) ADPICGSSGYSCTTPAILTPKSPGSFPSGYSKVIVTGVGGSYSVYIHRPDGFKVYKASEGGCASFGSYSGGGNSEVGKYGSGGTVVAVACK	glycan array binding signal (z-score)	-0.24
LSECtin (Homo sapiens), Q6UXB4 (protein) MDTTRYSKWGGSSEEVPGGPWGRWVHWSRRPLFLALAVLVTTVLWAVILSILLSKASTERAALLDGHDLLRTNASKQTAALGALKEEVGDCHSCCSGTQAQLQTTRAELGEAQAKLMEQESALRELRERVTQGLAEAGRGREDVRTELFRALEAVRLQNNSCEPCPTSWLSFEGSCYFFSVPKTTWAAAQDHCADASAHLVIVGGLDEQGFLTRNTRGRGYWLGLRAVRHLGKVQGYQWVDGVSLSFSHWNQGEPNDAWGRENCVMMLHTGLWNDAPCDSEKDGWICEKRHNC	glycan array binding signal (z-score)	-0.136
RsaA-N-term (Caulobacter crescentus), P35828 (protein) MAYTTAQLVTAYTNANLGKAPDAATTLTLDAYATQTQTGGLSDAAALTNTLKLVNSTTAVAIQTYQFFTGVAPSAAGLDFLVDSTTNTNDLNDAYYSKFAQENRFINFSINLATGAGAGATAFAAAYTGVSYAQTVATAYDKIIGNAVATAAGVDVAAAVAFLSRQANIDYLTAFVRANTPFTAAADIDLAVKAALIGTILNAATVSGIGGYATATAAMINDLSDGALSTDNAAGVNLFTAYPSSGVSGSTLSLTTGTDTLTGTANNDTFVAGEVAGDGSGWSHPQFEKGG	glycan array binding signal (z-score)	3.01
XCL (Xerocomus chrysenteron) (protein) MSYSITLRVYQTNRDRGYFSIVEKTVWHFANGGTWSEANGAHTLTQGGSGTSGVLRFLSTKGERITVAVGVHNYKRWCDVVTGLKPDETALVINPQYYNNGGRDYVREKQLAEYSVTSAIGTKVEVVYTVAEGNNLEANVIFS	glycan array binding signal (z-score)	-0.321
Drgal1 (Danio rerio) (protein) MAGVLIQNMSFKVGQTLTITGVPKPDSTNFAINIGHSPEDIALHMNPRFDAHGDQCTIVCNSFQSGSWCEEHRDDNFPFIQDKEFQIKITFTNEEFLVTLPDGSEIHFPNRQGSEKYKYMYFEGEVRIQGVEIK	glycan array binding signal (z-score)	-0.095
CrataBL (Crataeva tapia), C0HJA4 (protein) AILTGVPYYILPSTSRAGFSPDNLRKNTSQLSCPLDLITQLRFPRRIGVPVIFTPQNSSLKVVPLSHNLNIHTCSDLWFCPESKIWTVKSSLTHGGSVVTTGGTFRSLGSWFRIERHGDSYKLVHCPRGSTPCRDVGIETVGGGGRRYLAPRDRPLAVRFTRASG	glycan array binding signal (z-score)	6.61
KISKRILTGKK [NK11 (Sus scrofa)]	glycan array binding signal (z-score)	3.65
SEX4 (Arabidopsis thaliana), Q944A8 (protein) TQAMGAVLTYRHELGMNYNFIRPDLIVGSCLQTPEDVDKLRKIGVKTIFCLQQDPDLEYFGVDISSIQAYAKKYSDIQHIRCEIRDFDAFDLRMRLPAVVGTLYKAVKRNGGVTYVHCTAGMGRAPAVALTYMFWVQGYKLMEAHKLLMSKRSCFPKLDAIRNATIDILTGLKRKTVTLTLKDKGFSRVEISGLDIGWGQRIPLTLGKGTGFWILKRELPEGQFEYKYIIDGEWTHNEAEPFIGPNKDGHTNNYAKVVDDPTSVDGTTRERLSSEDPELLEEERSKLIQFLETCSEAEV	glycan array binding signal (z-score)	1.27
AT5G01260(PC)(40) (Arabidopsis thaliana), Q9LFB0 (protein) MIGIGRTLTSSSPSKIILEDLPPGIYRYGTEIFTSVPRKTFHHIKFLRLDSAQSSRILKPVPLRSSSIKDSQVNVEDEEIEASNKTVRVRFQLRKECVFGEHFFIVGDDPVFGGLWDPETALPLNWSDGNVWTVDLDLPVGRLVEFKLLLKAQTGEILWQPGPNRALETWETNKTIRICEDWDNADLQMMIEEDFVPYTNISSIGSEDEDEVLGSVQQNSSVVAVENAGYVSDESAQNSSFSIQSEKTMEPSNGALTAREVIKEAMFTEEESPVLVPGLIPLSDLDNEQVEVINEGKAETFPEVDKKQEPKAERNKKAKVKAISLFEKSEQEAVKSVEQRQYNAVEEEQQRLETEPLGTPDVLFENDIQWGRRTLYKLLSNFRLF	glycan array binding signal (z-score)	-0.529

From here, focus on the item given below.
Query glycan array binding signal (z-score) for Clec18A (Homo sapiens) (protein) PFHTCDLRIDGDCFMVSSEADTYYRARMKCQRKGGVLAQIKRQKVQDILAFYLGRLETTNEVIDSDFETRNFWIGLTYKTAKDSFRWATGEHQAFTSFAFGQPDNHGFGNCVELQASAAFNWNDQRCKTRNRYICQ
-0.347
